Target: human LPA1 (Homo sapiens, UniProt Q92633)
Construct: expressed in transfected cells; host or cells: CHO-K1
Sequence (Q92633 whole entry): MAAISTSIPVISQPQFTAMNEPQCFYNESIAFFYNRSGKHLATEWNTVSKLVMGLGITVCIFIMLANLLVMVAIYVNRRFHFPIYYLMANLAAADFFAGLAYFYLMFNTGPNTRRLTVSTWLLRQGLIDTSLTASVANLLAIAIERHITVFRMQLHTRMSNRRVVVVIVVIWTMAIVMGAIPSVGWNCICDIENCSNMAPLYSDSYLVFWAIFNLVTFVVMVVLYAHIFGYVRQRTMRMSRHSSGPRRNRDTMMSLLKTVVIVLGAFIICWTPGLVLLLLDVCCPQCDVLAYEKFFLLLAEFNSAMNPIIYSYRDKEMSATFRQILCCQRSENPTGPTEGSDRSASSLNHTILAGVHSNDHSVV
Assay: In vitro LPA1 calcium flux antagonist assay, Bioduro protocol
Format: cell-based
Settings: CHO-K1 cells overexpressing human LPA1 and G15a; LPA challenge at EC80; calcium mobilization on FLIPR Tetra; read-out: IC50 (nM) in Assay B2
readout kind: IC50 (nM)

Examples from the recorded data:
molecule	value units	IC50
COc1cc([C@@H](O)[C@H](Cc2cc3cccc(C(=O)O)n3n2)OC2CCCC2)cc(OC)c1C [Compound 169]	nM	150
COc1cc([C@@H](O)[C@H](Cc2cc3c(OC)ccc(C(=O)O)n3n2)OC2CCCC2)cc(OC)c1C [Compound 237]	nM	10.3

I = CCCc1sc(C[C@H](OC2CCCC2)[C@H](O)c2cc(OC)c(C)c(OC)c2)nc1CC(=O)O [Compound 179]
II = COc1cc([C@@H](O)[C@H](Cn2cc3cc(C)nc(C(=O)O)c3n2)OC2CCCC2)cc(OC)c1C [Compound 195]
# input Please indicate which entry, I or II , has the lower recorded IC50 value. Write down the label attached to your selection.
# output I
(I: 20.3 nM, II: 32.3 nM)
